Molecular target: Luciferin 4-monooxygenase (Photinus pyralis) (UniProt P08659)
Sequence (P08659 whole entry, looked up): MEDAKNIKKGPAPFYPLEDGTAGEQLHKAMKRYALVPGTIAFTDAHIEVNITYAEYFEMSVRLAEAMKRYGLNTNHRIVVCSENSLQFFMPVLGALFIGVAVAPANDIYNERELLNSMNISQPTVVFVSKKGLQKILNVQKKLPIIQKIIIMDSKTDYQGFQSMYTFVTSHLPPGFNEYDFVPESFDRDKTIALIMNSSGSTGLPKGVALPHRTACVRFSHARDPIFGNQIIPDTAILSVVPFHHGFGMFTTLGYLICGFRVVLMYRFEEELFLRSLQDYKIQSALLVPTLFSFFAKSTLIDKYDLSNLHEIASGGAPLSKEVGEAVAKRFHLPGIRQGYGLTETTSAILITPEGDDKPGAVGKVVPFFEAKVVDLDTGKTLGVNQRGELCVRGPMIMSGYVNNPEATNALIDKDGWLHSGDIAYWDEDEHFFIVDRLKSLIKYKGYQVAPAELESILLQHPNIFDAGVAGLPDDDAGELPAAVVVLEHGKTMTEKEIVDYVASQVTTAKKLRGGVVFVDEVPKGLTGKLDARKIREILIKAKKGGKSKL
Experiment: Biochemical firefly luciferase enzyme assay for NPC (AID 624030);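 further: purified P. pyralis luciferase at 10 nM with luciferin and ATP substrate; 0% = DMSO and -100% = full luciferase inhibition by PTC124 control; nearly all actives have a fitted effect of over 70% in size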
Conditions: purified P. pyralis luciferase, luminescence, 5 min; series mostly up to 58.6 µM
Inconclusive results are not listed. Activity calls are given as the source filed them. The call rests on the fitted dose curve; in most records, active means well fitted inhibition curve with a large enough effect; inconclusive means small, poorly fitted or top-dose-only effect; inactive means flat fitted curve, though single readings scatter.
assay metric: outcome

Example entries begin here.
compound: C[C@@H]1CCC[C@H](C)N1
assay metric: outcome
result: inactive

compound: Cc1ccccc1N=Nc1ccc(N=Nc2c(O)ccc3ccccc23)c(C)c1
assay metric: outcome
result: inactive

compound: Cc1c(Cn2ccnc2)c2ccccc2n1CCC(=O)O
assay metric: outcome
result: inactive

compound: CC(N)CCCC(C)(C)O (stereo not drawn)
assay metric: outcome
result: inactive

compound: O=C(O)c1ccc[n+]([O-])c1
assay metric: outcome
result: inactive

compound: CCc1nnc(NS(=O)(=O)c2ccc(N)cc2)s1
assay metric: outcome
result: inactive

Return reported outcome; argument: CN(C/C=C/C#CC(C)(C)C)Cc1cccc2ccccc12
inactive

----------
Target: ATP-dependent 6-phosphofructokinase (Trypanosoma brucei brucei)
Test: qHTS Assay to Find Inhibitors of T. brucei phosphofructokinase: hit validation (AID 492961);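 further: luminescence reports ADP formed as PFK phosphorylates fructose-6-phosphate with ATP; on the % scale 0 is the no-effect control and ±100 the full control effect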
Settings: T. brucei PFK, ADP-Glo luminescence; series mostly up to 51.4 µM
Inconclusive results are not listed. Active and inactive are the calls of the source. Calls follow the shape of the dose curve; as a rule, active = well fitted inhibition curve with a large enough effect; inconclusive = small, poorly fitted or top-dose-only effect, or effect the other way; inactive = flat fitted curve, though single readings scatter.
assay metric: outcome

Example entries begin here.
molecule: Nc1c2c(nc3c1CCC3)CCCC2
outcome: inactive
//
molecule: CCCCCCCC(=O)OCC(COC(=O)CCCCCCC)OC(=O)CCCCCCC
outcome: inactive
//
molecule: CCN(CC)CC1CCCCN1CC(=O)N1c2ccccc2C(=O)Nc2cccnc21 (stereo not given)
outcome: inactive
//
molecule: Cc1cccc(C)c1NC(=O)CC12CCCN1CCC2
outcome: inactive
//
molecule: CC(C)CCOC(=O)c1ccc(N(C)C)cc1
outcome: inactive

Return reported outcome; argument: C=CCSCC1Nc2cc(Cl)c(S(N)(=O)=O)cc2S(=O)(=O)N1 (stereo not given)
inactive

Return reported outcome; argument: CC[N+](C)(CC)CCOC(=O)C1c2ccccc2Oc2ccccc21
inactive

Return reported outcome; argument: Cc1ccccc1N=Nc1ccc(N=Nc2c(O)ccc3ccccc23)c(C)c1
inactive

----------
Test: qHTS assay for small molecule agonists of the antioxidant response element (ARE) signaling pathway measured by Nrf2-dependant transcriptional activity - cell viability counter screen (AID 720653); further: on the % scale 0 is the no-effect control and ±100 the full control effect
Details: ARE-bla HepG2 viability, CellTiter-Glo ATP luminescence, 16 h; stronger effect = lower value
Results filed as inconclusive are left out.
assay metric: max response (%)
Only the number, expressed in %, is required.

compound: Cc1ccc(C(C)C)c(O)c1
units text: %
max response: -4.59

compound: COC(=O)c1ccc(O)cc1
units text: %
max response: -3.37

compound: C=CCNC(N)=S
units text: %
max response: 0.701

Turning now to a further compound:
Return reported max response; argument: COc1ccc(O)cc1
-1.63

----------
Test system: CP194
Assay: qHTS profiling for inhibitors of Plasmodium falciparum proliferation (AID 504749);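 further: 0% = DMSO vehicle and full inhibition = artemisinin control; nearly all actives have a fitted effect of over 60% in size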
Conditions: P. falciparum in erythrocytes, SYBR Green DNA, 72 h; series mostly up to 28.7 µM
Inconclusive results are not listed. Active and inactive are the calls of the source. Calls follow the shape of the dose curve; as a rule, active = well fitted inhibition curve with a large enough effect; inconclusive = small, poorly fitted or top-dose-only effect; inactive = flat fitted curve, though single readings scatter.
assay metric: outcome

molecule: Nc1ccncc1N
outcome: inactive

molecule: CN(C(=O)c1c(O)c2ccccc2n(C)c1=O)c1ccccc1
outcome: inactive

molecule: CC(C)CCOC(=O)c1ccc(N(C)C)cc1
outcome: inactive

molecule: COc1cc(O)cc(O)c1
outcome: inactive

molecule: Cc1cc(NC(=O)C2=C(O)c3ccccc3S(=O)(=O)N2C)no1
outcome: inactive

molecule: CCCCCCCC(=O)OCC(COC(=O)CCCCCCC)OC(=O)CCCCCCC
outcome: inactive

molecule: COc1nccnc1NS(=O)(=O)c1ccc(N)cc1
outcome: inactive

molecule: CN1CCCN=C1COC(=O)C(O)(c1ccccc1)C1CCCCC1 (stereo not drawn)
outcome: inactive

molecule: NNc1nnc(NN)c2ccccc12
outcome: inactive

molecule: c1ccc2[nH]ccc2c1
outcome: inactive

Return reported outcome; argument: CCN1CC(CCN2CCOCC2)C(c2ccccc2)(c2ccccc2)C1=O (stereo not drawn)
inactive

Return reported outcome; argument: Cc1ccsc1C(=CCCN1CCC[C@@H](C(=O)O)C1)c1sccc1C
inactive

Return reported outcome; argument: Cc1cccc(C)c1NC(=O)CC12CCCN1CCC2
inactive

Return reported outcome; argument: COC(=O)c1ccc(O)cc1
inactive

Return reported outcome; argument: O=c1[nH]c(=O)c2ccccc2o1
inactive

Return reported outcome; argument: CCCCOC(=O)c1ccc(N)cc1
inactive
